target_or_test_system: MOR (Homo sapiens, UniProt P35372)
Sequence (P35372 whole entry): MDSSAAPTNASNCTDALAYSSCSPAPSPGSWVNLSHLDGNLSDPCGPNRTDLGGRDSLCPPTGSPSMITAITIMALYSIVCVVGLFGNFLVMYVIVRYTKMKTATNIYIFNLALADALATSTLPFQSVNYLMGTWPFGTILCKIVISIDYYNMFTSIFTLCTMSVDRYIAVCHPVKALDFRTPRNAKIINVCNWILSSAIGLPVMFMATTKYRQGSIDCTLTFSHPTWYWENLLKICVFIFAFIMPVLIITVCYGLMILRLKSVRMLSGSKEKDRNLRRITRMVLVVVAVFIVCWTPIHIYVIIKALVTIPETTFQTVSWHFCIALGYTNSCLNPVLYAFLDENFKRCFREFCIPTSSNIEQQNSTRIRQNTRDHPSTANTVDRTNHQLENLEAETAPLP
experiment_summary: cell-based
cond: HEK-293T, read-out: Emax% cAMP inhibition hMOR
# Emax annotations
Lab book: enter the figure in %, no units written.

Examples with answers:
compound	unit_text	measured_value
O=C(N[C@@H]1CCC2C3Cc4ccc(O)c5c4[C@@]2(CCN3CC2CC2)C1O5)c1cccc(I)c1 (some centres unmarked)	%	92
O=C(NC1C=CC2C3Cc4ccc(O)c5c4C2(CCN3CC2CC2)C1O5)c1cccc(I)c1 (centres unmarked)	%	94
NCc1ccc(C(=O)N[C@@H]2CC[C@H]3[C@H]4Cc5ccc(O)c6c5[C@@]3(CCN4CC3CC3)[C@H]2O6)cc1	%	98.5
O=C(N[C@@H]1CC[C@H]2[C@H]3Cc4ccc(O)c5c4[C@@]2(CCN3CC2CC2)[C@H]1O5)c1cccc(CO)c1	%	94.6

Then this compound:
Asked: Bench note: what Emax did N=C(N)NCc1cccc(C(=O)N[C@@H]2CCC3C4Cc5ccc(O)c6c5[C@@]3(CCN4CC3CC3)C2O6)c1 (some centres unmarked) show?
Given back: 42

Recorded values, source paper PMC7909954.
